Answer each item with its documented shrunken log2 fold change.
System: Escherichia coli TOP10;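 further: peptides expressed intracellularly from a pBAD plasmid library in pooled LB shake-flask culture, induced with 0.3% L-arabinose, DNA abundance read by NGS, three biological replicates, DESeq2 with apeglm shrinkage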
experimental.details: shrunken log2 fold change of peptide-encoding DNA abundance (4.5 h post-induction vs induction); higher = less antimicrobial activity (less host growth inhibition)
assay.context: time post-induction: 4.5 h; library: site-saturation at positions 5, 18, 19, 20
Answer using only a numeral; do not append any unit.

Ask | State its shrunken log2 fold change on Escherichia coli TOP10: "RRIRSRPPRLPRPRPRPAYIPRP"
Reply | -0.0884

Ask | State its shrunken log2 fold change on Escherichia coli TOP10: "RRIRERPPRLPRPRPRPWPKPRP"
Reply | -0.102

Ask | State its shrunken log2 fold change on Escherichia coli TOP10: "RRIRFRPPRLPRPRPRPLYSPRP"
Reply | -0.211

Ask | State its shrunken log2 fold change on Escherichia coli TOP10: "RRIRIRPPRLPRPRPRPDYLPRP"
Reply | -0.0127

Ask | State its shrunken log2 fold change on Escherichia coli TOP10: "RRIRFRPPRLPRPRPRPIKCPRP"
Reply | -0.229

Ask | State its shrunken log2 fold change on Escherichia coli TOP10: "RRIRQRPPRLPRPRPRPHWDPRP"
Reply | -0.224

Ask | State its shrunken log2 fold change on Escherichia coli TOP10: "RRIRVRPPRLPRPRPRPCVDPRP"
Reply | -0.0658

Ask | State its shrunken log2 fold change on Escherichia coli TOP10: "RRIRCRPPRLPRPRPRPKYEPRP"
Reply | -0.403
